# Species: Rattus norvegicus
# testDescription: Open TG-GATES - Regimen: Single
# Format: toxicity, organism-based, Sprague-Dawley
# Parameters: regimen Single, gender Male, age 6 weeks
# conditionNotes: in vivo, po, 30 mg/kg, 6 h, tissue Plasma, route gavage, dose level Middle
propertyLabel: LDH (IU/L)
Entry rule: numbers only, all in IU/L.

Would you kindly share the measured LDH for `CN(C)CCN(Cc1cccs1)c1ccccn1` ?
178

Follow-up item: CN(C)CCCN1c2ccccc2CCc2ccccc21 [IMIPRAMINE]
138.2

Follow-up item: CN(C)CCCN1c2ccccc2CCc2ccc(Cl)cc21 [CLOMIPRAMINE]
75.4

Follow-up item: CC1=C(/C=C/C(C)=C/C=C/C(C)=C/CO)C(C)(C)CCC1 [RETINOL]
224.8

----------
Give Ret for every item shown.
# Species on record: Rattus norvegicus
# testDescription: Open TG-GATES - Regimen: Daily Repeat
# Type: toxicity, organism-based, Sprague-Dawley
# Parameters: regimen Daily Repeat, gender Male, age 6 weeks
# conditionNotes: in vivo, po, 0 mg/kg, […], tissue Blood, route gavage, dose level Control, time 7 day
Entry rule: numbers only, all in %.

Would you kindly share the measured Ret for `CN1C(=O)CN=C(c2ccccc2)c2cc(Cl)ccc21` ?
6.3

Follow-up item: CCCNC(=O)NS(=O)(=O)c1ccc(Cl)cc1 [CHLORPROPAMIDE]
6.4

Follow-up item: COc1ccc2[nH]c([S+]([O-])Cc3ncc(C)c(OC)c3C)nc2c1 (stereo not drawn)
4.8

Follow-up item: `NNC(=O)c1ccncc1`
6

Follow-up item: `NC(N)=Nc1nc(CSCCC(N)=NS(N)(=O)=O)cs1`
5

Follow-up item: CC(C)OC(=O)C(C)(C)Oc1ccc(C(=O)c2ccc(Cl)cc2)cc1 [FENOFIBRATE]
6.1

Follow-up item: CCOC(=O)CCC(=O)O[C@H]1[C@H](O[C@@H]2[C@@H](C)[C@H](O[C@H]3C[C@@](C)(OC)[C@@H](O)[C@H](C)O3)[C@@H](C)C(=O)O[C@H](CC)[C@@](C)(O)[C@H](O)[C@@H](C)C(=O)[C@H](C)C[C@@]2(C)O)O[C@H](C)C[C@@H]1N(C)C [ERYTHROMYCIN ETHYLSUCCINATE]
6.2

Follow-up item: `COC1=CC(=O)C[C@@H](C)[C@]12Oc1c(Cl)c(OC)cc(OC)c1C2=O`
5.2

Follow-up item: `CN(C)CCCN1c2ccccc2CCc2ccccc21`
6.1

Follow-up item: `CN(C)CCN(Cc1cccs1)c1ccccn1`
5.8

Follow-up item: CCOc1ccc(NC(=O)CC(C)O)cc1 (stereo not drawn)
6.3

Follow-up item: `O=C(CCCN1CCC(O)(c2ccc(Cl)cc2)CC1)c1ccc(F)cc1`
5.8

Follow-up item: `CC1=C(/C=C/C(C)=C/C=C/C(C)=C/CO)C(C)(C)CCC1`
5.1

----------
Give Ret for every item shown.
# Organism: Rattus norvegicus
# testDescription: Open TG-GATES - Regimen: Single
# Type: toxicity, organism-based, Sprague-Dawley
# Design: regimen Single, gender Male, age 6 weeks
# conditionNotes: in vivo, po, 0 mg/kg, 9 h, tissue Blood, route gavage, dose level Control
Entry rule: numbers only, all in %.

Would you kindly share the measured Ret for `COC1=CC(=O)C[C@@H](C)[C@]12Oc1c(Cl)c(OC)cc(OC)c1C2=O` ?
7.4

Follow-up item: `O=C(CCCN1CCC(O)(c2ccc(Cl)cc2)CC1)c1ccc(F)cc1`
8.3

Follow-up item: `COc1cc2c(c(OC)c1OC)-c1ccc(OC)c(=O)cc1[C@@H](NC(C)=O)CC2`
9.4

Follow-up item: `C[C@@H]1C[C@H]2[C@@H]3CCC4=CC(=O)C=C[C@]4(C)[C@@]3(F)[C@@H](O)C[C@]2(C)[C@@]1(O)C(=O)CO`
7.8

----------
Give PL for every item shown.
# Organism: Rattus norvegicus
# testDescription: Open TG-GATES - Regimen: Single
# Type: toxicity, organism-based, Sprague-Dawley
# Design: regimen Single, gender Male, age 6 weeks
# conditionNotes: in vivo, po, 1000 mg/kg, 9 h, tissue Plasma, route gavage, dose level High
Entry rule: numbers only, all in mg/dL.

Would you kindly share the measured PL for CCOC(=O)CCC(=O)O[C@H]1[C@H](O[C@@H]2[C@@H](C)[C@H](O[C@H]3C[C@@](C)(OC)[C@@H](O)[C@H](C)O3)[C@@H](C)C(=O)O[C@H](CC)[C@@](C)(O)[C@H](O)[C@@H](C)C(=O)[C@H](C)C[C@@]2(C)O)O[C@H](C)C[C@@H]1N(C)C [ERYTHROMYCIN ETHYLSUCCINATE] ?
144.4

Follow-up item: CC(C)OC(=O)C(C)(C)Oc1ccc(C(=O)c2ccc(Cl)cc2)cc1 [FENOFIBRATE]
119

Follow-up item: `COC1=CC(=O)C[C@@H](C)[C@]12Oc1c(Cl)c(OC)cc(OC)c1C2=O`
134.2

Follow-up item: COc1ccc2[nH]c([S+]([O-])Cc3ncc(C)c(OC)c3C)nc2c1 (stereo not given)
153.2

Follow-up item: `NC(N)=Nc1nc(CSCCC(N)=NS(N)(=O)=O)cs1`
151.4

----------
# Species on record: Rattus norvegicus
# testDescription: Open TG-GATES - Regimen: Single
# Type: toxicity, organism-based, Sprague-Dawley
# Set-up: regimen Single, gender Male, age 6 weeks
# conditionNotes: in vivo, po, 0 mg/kg, 24 h, tissue Plasma, route gavage, dose level Control
Checkbox rule: IP lower than 8 mg/dL = label 1; IP not lower than 8 mg/dL = label 0.

# TODO verify IP < 8 mg/dL strictly for this molecule: COc1cc2c(c(OC)c1OC)-c1ccc(OC)c(=O)cc1[C@@H](NC(C)=O)CC2 [COLCHICINE]
label 1

Follow-up item: CCOC(=O)CCC(=O)O[C@H]1[C@H](O[C@@H]2[C@@H](C)[C@H](O[C@H]3C[C@@](C)(OC)[C@@H](O)[C@H](C)O3)[C@@H](C)C(=O)O[C@H](CC)[C@@](C)(O)[C@H](O)[C@@H](C)C(=O)[C@H](C)C[C@@]2(C)O)O[C@H](C)C[C@@H]1N(C)C [ERYTHROMYCIN ETHYLSUCCINATE]
label 0

Follow-up item: NC(N)=Nc1nc(CSCCC(N)=NS(N)(=O)=O)cs1 [FAMOTIDINE]
label 1

Follow-up item: Cc1ccc(C)c(OCCCC(C)(C)C(=O)O)c1 [GEMFIBROZIL]
label 0

----------
# Species: Rattus norvegicus
# testDescription: Open TG-GATES - Regimen: Single
# Format: toxicity, organism-based, Sprague-Dawley
# Parameters: regimen Single, gender Male, age 6 weeks
# conditionNotes: in vivo, po, 0 mg/kg, 6 h, tissue Kidney, route gavage, dose level Control
propertyLabel: KIDNEY_TOTAL (g)
Entry rule: numbers only, all in g.

Would you kindly share the measured KIDNEY_TOTAL for CCCNC(=O)NS(=O)(=O)c1ccc(Cl)cc1 [CHLORPROPAMIDE] ?
1.7

Follow-up item: `CC/C(=C(\c1ccccc1)c1ccc(OCCN(C)C)cc1)c1ccccc1`
1.7

Follow-up item: `COc1cc2c(c(OC)c1OC)-c1ccc(OC)c(=O)cc1[C@@H](NC(C)=O)CC2`
2

Follow-up item: CCOc1ccc(NC(=O)CC(C)O)cc1 (stereo not drawn)
1.9

Follow-up item: CCOC(=O)CCC(=O)O[C@H]1[C@H](O[C@@H]2[C@@H](C)[C@H](O[C@H]3C[C@@](C)(OC)[C@@H](O)[C@H](C)O3)[C@@H](C)C(=O)O[C@H](CC)[C@@](C)(O)[C@H](O)[C@@H](C)C(=O)[C@H](C)C[C@@]2(C)O)O[C@H](C)C[C@@H]1N(C)C [ERYTHROMYCIN ETHYLSUCCINATE]
1.9

Follow-up item: COc1ccc2[nH]c([S+]([O-])Cc3ncc(C)c(OC)c3C)nc2c1 (stereo not drawn)
1.9

Follow-up item: `NNC(=O)c1ccncc1`
1.9

Follow-up item: `Cc1ccc(C)c(OCCCC(C)(C)C(=O)O)c1`
1.8

Follow-up item: `CC1=C(/C=C/C(C)=C/C=C/C(C)=C/CO)C(C)(C)CCC1`
1.9

Follow-up item: `CN(C)CCCN1c2ccccc2CCc2ccc(Cl)cc21`
2

Follow-up item: `NC(N)=Nc1nc(CSCCC(N)=NS(N)(=O)=O)cs1`
2

Follow-up item: `CN(C)CCN(Cc1cccs1)c1ccccn1`
1.7

Follow-up item: `COC1=CC(=O)C[C@@H](C)[C@]12Oc1c(Cl)c(OC)cc(OC)c1C2=O`
1.9

Follow-up item: `CN1C(=O)CN=C(c2ccccc2)c2cc(Cl)ccc21`
2

Follow-up item: `C[C@@H]1C[C@H]2[C@@H]3CCC4=CC(=O)C=C[C@]4(C)[C@@]3(F)[C@@H](O)C[C@]2(C)[C@@]1(O)C(=O)CO`
0.7

Follow-up item: CC(C)OC(=O)C(C)(C)Oc1ccc(C(=O)c2ccc(Cl)cc2)cc1 [FENOFIBRATE]
1.5

Follow-up item: `CN(C)CCCN1c2ccccc2CCc2ccccc21`
1.9

Follow-up item: `O=C(CCCN1CCC(O)(c2ccc(Cl)cc2)CC1)c1ccc(F)cc1`
1.9
